Origin of the recorded values: patent US20260242478A1

target: T1, PSMA Fab (006 PSMA Fab) (biotinylated (site not given)); experiment: clonal phage ELISA; biotinylated PSMA Fab on neutravidin plate, wells pre-incubated with PSMA antigen as competitor; anti-M13 HRP detection;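 also: crude clonal phage supernatants added to antigen-treated wells without a wash, incubated briefly, then bound phage read out via horse radish–conjugated anti-M13 antibody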
T1 construct: also called Anti-PSMA Fab; anti-PSMA Fab
Where no end group is shown, it is not given here.
endpoint_label: Phage binding ELISA signal, Anti-PSMA Fab with PSMA antigen

binder	reading
EYKWCTPIWMCQGN (cysteine pairing not given here; also: displayed on phage as pIII fusion, fusion junction and sequence not given here, Clonal phage of the Peptide-180 library, tested as crude phage supernatant; not shown: pIII filament protein of the bacteriophage) [Phage-2648]	0.0626
VGNWCTPMWMCQAF (cysteine pairing not given here; also: displayed on phage pIII, linker not given here, Clonal phage of the Peptide-180 library, tested as crude phage supernatant; not shown: pIII filament protein of the bacteriophage) [Phage-2639]	0.0864
